Test target: SIRT1 D348A (Homo sapiens, UniProt Q96EB6, D348A)
Assay text: Inhibitory constant on SIRT1 mutant D348A
Readout: pKi
Please treat pKi as minus the base-10 logarithm of the molar concentration.

IN: Return reported pKi; argument: COc1cc(C=C2C(=O)OC(c3ccccc3)OC2=O)cc(Br)c1O (stereo not shown)
OUT: 5.36

----------
Task for the reader: assign each of the following compounds its reported pIC50.
Test target: SIRT1 (Homo sapiens)
Assay text: SIRT1 enzyme activity test (deacetylase inhibition)
Assay type: biochemical
Condition parameters: Table 2; 1 μM SIRT1, 500 μM NAD+, 10 μM substrate peptide, 37 °C, 30 min; read-out: IC50
Please treat pIC50 as minus the base-10 logarithm of the molar concentration.

IN: Return reported pIC50; argument: CC(C)Oc1ccccc1C=C1C(=O)OC(c2ccccc2)OC1=O (stereo not drawn) [Compound S14]
OUT: 4.85

IN: Input COc1cc(C=C2C(=O)OC(C)(c3ccccc3)OC2=O)cc(I)c1O (stereo not drawn) [Compound S2]
OUT: 5.61

IN: Input O=C1OC(c2ccccc2)OC(=O)C1=Cc1ccc(OCc2ccc3c(c2)OCO3)cc1 (stereo not drawn) [Compound S17]
OUT: 5.47

IN: Input O=C(COc1ccc(C=C2C(=O)OC(c3ccccc3)OC2=O)cc1)Nc1ccccc1 (stereo not drawn) [Compound S21]
OUT: 5.35

IN: Input COc1cc(OC)c(C=C2C(=O)OC(c3ccccc3)OC2=O)cc1Br (stereo not drawn) [Compound S22]
OUT: 5.31

----------
Test target: SIRT1 I347A (Homo sapiens, UniProt Q96EB6, I347A)
Assay text: Inhibitory constant on SIRT1 mutant I347A
Readout: pKi
Please treat pKi as minus the base-10 logarithm of the molar concentration.

IN: Return reported pKi; argument: COc1cc(C=C2C(=O)OC(c3ccccc3)OC2=O)cc(Br)c1O (stereo not shown) [Compound S3]
OUT: 6.17

----------
Test target: SIRT1 N346A (Homo sapiens, UniProt Q96EB6, N346A)
Assay text: Inhibitory constant on SIRT1 mutant N346A
Condition parameters: mutant N346A
Readout: Ki (nM)
Output spec: scalar in nM, unitless text.

IN: Return reported Ki; argument: COc1cc(C=C2C(=O)OC(c3ccccc3)OC2=O)cc(Br)c1O (stereo not shown)
OUT: 2470

----------
Test target: SIRT1 F414A (Homo sapiens, UniProt Q96EB6, F414A)
Sequence (Q96EB6 1-747 F414A): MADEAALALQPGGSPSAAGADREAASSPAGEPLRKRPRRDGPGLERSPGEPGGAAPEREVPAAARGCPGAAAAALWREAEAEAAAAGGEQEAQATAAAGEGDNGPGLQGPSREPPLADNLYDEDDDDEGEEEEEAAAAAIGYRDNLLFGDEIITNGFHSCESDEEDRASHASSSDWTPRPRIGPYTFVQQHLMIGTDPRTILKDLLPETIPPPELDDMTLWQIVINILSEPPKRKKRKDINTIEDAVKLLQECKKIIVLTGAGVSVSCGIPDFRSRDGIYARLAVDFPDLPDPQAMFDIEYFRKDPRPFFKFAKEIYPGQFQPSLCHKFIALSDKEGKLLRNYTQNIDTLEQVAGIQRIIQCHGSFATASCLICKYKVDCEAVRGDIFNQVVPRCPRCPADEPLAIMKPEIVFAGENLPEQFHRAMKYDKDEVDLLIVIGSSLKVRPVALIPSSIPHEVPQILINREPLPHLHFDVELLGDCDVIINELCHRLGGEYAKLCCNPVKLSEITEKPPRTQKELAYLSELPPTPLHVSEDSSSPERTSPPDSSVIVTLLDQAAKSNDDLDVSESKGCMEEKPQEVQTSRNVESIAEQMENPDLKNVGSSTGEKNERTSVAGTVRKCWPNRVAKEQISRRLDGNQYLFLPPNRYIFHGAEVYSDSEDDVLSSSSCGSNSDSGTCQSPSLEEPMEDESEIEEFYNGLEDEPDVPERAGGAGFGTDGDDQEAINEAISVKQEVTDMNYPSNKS
Assay text: Inhibitory constant on SIRT1 mutant F414A
Readout: pKi
Please treat pKi as minus the base-10 logarithm of the molar concentration.

IN: Return reported pKi; argument: COc1cc(C=C2C(=O)OC(c3ccccc3)OC2=O)cc(Br)c1O (stereo not shown)
OUT: 4.59
